From: PubChem BioAssay AID1963846

Test system: 454973-116-R2-J3-PDC complex spheroid viability
Assay: Anticancer human tumor 454973-116-R2-J3-PDC patient-derived pancreatic carcinoma cell line growth inhibition [POLQ]; active = viability on the fitted dose curve at most 10% of control; inactive = the rest
Conditions: second compound 3.16 µM; first compound 0.1 µM
Outcome codes: yes (1) = active, no (0) = inactive

| molecule | discrete label |
| --- | --- |
| CC1COCCN1c1cc(C2(S(C)(=N)=O)CC2)nc(-c2ccnc3[nH]ccc23)n1 (stereo unspecified) + COC1C(OC(N)=O)C(O)C(Oc2ccc3c(O)c(NC(=O)c4ccc(O)c(CC=C(C)C)c4)c(=O)oc3c2C)OC1(C)C | no (0) |
| O=C(c1cc(Cc2n[nH]c(=O)c3ccccc23)ccc1F)N1CCN(C(=O)C2CC2)CC1 + COC1C(OC(N)=O)C(O)C(Oc2ccc3c(O)c(NC(=O)c4ccc(O)c(CC=C(C)C)c4)c(=O)oc3c2C)OC1(C)C | no (0) |
| COc1cccc(OCCCN)c1-c1cc(Nc2cnc(C#N)cn2)n[nH]1 + Nc1ccc(C#CCN(C(=O)Cc2ncc(C(F)(F)F)cc2C(F)(F)F)c2ccc(F)cc2)nn1 | yes (1) |
| O=C(Nc1ccc(O)c(NS(=O)(=O)c2ccc(F)cc2)c1)c1ccc(-c2ccccc2)cc1 + COC1C(OC(N)=O)C(O)C(Oc2ccc3c(O)c(NC(=O)c4ccc(O)c(CC=C(C)C)c4)c(=O)oc3c2C)OC1(C)C | no (0) |
| CC1COCCN1c1cc(C2(S(C)(=N)=O)CC2)nc(-c2ccnc3[nH]ccc23)n1 (stereo unspecified) + Cc1cccc(N(C)C(=O)C2C(O)CCN2c2nc(C)cc(C(F)(F)F)c2C#N)c1 | no (0) |
| COc1cc2cc(C(=O)CCC(=O)O)sc2cc1OC + COC1C(OC(N)=O)C(O)C(Oc2ccc3c(O)c(NC(=O)c4ccc(O)c(CC=C(C)C)c4)c(=O)oc3c2C)OC1(C)C | no (0) |
| COc1ccc([C@@H](O)c2cc(-c3ncnc4cc(N5CCOCC5)ccc34)c(F)cc2Cl)nn1 + COC1C(OC(N)=O)C(O)C(Oc2ccc3c(O)c(NC(=O)c4ccc(O)c(CC=C(C)C)c4)c(=O)oc3c2C)OC1(C)C | no (0) |
| COc1ccc([C@@H](O)c2cc(-c3ncnc4cc(N5CCOCC5)ccc34)c(F)cc2Cl)nn1 + Cc1cccc(N(C)C(=O)C2C(O)CCN2c2nc(C)cc(C(F)(F)F)c2C#N)c1 | no (0) |
| CNCc1ccc(-c2[nH]c3cc(F)cc4c3c2CCNC4=O)cc1 + Nc1ccc(C#CCN(C(=O)Cc2ncc(C(F)(F)F)cc2C(F)(F)F)c2ccc(F)cc2)nn1 | no (0) |
| O=c1[nH]cc(F)c(=O)[nH]1 + COC1C(OC(N)=O)C(O)C(Oc2ccc3c(O)c(NC(=O)c4ccc(O)c(CC=C(C)C)c4)c(=O)oc3c2C)OC1(C)C | no (0) |
| CCc1cc2c(N3CCc4c(cc(Cn5ccnc5)cc4-c4cn(C)nc4C(F)(F)F)C3=O)cc(C)nc2c(OC)n1 + COC1C(OC(N)=O)C(O)C(Oc2ccc3c(O)c(NC(=O)c4ccc(O)c(CC=C(C)C)c4)c(=O)oc3c2C)OC1(C)C | no (0) |

----------
Test system: 454973-116-R2-J3-PDC complex spheroid viability
Experiment: Anticancer human tumor 454973-116-R2-J3-PDC cell line growth inhibition [POLQ];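 note: spheroids exposed to drugs for seven days before measurement; percent viability relative to DMSO vehicle control wells taken as 100%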
Conditions: second compound 0.0316 µM; first compound 0.01 µM; stronger effect = lower value

| molecule | unit info | viability, T/C |
| --- | --- | --- |
| C=CCn1c(=O)c2cnc(Nc3ccc(N4CCN(C)CC4)cc3)nc2n1-c1cccc(C(C)(C)O)n1 + Cc1cccc(N(C)C(=O)C2C(O)CCN2c2nc(C)cc(C(F)(F)F)c2C#N)c1 | % | 103 |
| Cn1ncnc1[C@H]1c2n[nH]c(=O)c3cc(F)cc(c23)N[C@@H]1c1ccc(F)cc1 + Cc1cccc(N(C)C(=O)C2C(O)CCN2c2nc(C)cc(C(F)(F)F)c2C#N)c1 | % | 96.1 |
| CC[C@@]1(O)C(=O)OCc2c1cc1n(c2=O)Cc2cc3c(CN(C)C)c(O)ccc3nc2-1 + Cc1cccc(N(C)C(=O)C2C(O)CCN2c2nc(C)cc(C(F)(F)F)c2C#N)c1 | % | 85.3 |
| CCc1c2c(nc3ccc(O)cc13)-c1cc3c(c(=O)n1C2)COC(=O)[C@]3(O)CC + Cc1cccc(N(C)C(=O)C2C(O)CCN2c2nc(C)cc(C(F)(F)F)c2C#N)c1 | % | 17.2 |
| C=CCn1c(=O)c2cnc(Nc3ccc(N4CCN(C)CC4)cc3)nc2n1-c1cccc(C(C)(C)O)n1 + Nc1ccc(C#CCN(C(=O)Cc2ncc(C(F)(F)F)cc2C(F)(F)F)c2ccc(F)cc2)nn1 | % | 100 |
| COc1cccc(OCCCN)c1-c1cc(Nc2cnc(C#N)cn2)n[nH]1 + COC1C(OC(N)=O)C(O)C(Oc2ccc3c(O)c(NC(=O)c4ccc(O)c(CC=C(C)C)c4)c(=O)oc3c2C)OC1(C)C | % | 78 |
| CC[C@@]1(O)C(=O)OCc2c1cc1n(c2=O)Cc2cc3c(CN(C)C)c(O)ccc3nc2-1 + Nc1ccc(C#CCN(C(=O)Cc2ncc(C(F)(F)F)cc2C(F)(F)F)c2ccc(F)cc2)nn1 | % | 73.7 |
| C=CCn1c(=O)c2cnc(Nc3ccc(N4CCN(C)CC4)cc3)nc2n1-c1cccc(C(C)(C)O)n1 + COC1C(OC(N)=O)C(O)C(Oc2ccc3c(O)c(NC(=O)c4ccc(O)c(CC=C(C)C)c4)c(=O)oc3c2C)OC1(C)C | % | 98.3 |
| Cn1ncnc1[C@H]1c2n[nH]c(=O)c3cc(F)cc(c23)N[C@@H]1c1ccc(F)cc1 + Nc1ccc(C#CCN(C(=O)Cc2ncc(C(F)(F)F)cc2C(F)(F)F)c2ccc(F)cc2)nn1 | % | 90.9 |
| CC[C@@]1(O)C(=O)OCc2c1cc1n(c2=O)Cc2cc3c(CN(C)C)c(O)ccc3nc2-1 + COC1C(OC(N)=O)C(O)C(Oc2ccc3c(O)c(NC(=O)c4ccc(O)c(CC=C(C)C)c4)c(=O)oc3c2C)OC1(C)C | % | 86.8 |
| COc1cccc(OCCCN)c1-c1cc(Nc2cnc(C#N)cn2)n[nH]1 + Cc1cccc(N(C)C(=O)C2C(O)CCN2c2nc(C)cc(C(F)(F)F)c2C#N)c1 | % | 78.1 |

----------
Reported viability, T/C by item:
Tested on: 454973-116-R2-J3-PDC complex spheroid viability
Assay: Anticancer human tumor 454973-116-R2-J3-PDC cell line growth inhibition [POLQ];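 note: spheroids exposed to drugs for seven days before measurement; percent viability relative to DMSO vehicle control wells taken as 100%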
Details: second compound 1 µM; first compound 0.316 µM; stronger effect = lower value

| compound | unit info | viability, T/C |
| --- | --- | --- |
| CC1COCCN1c1cc(-c2ccnn2C)c2ccnc(-c3ccn[nH]3)c2n1 (stereo not given) + COC1C(OC(N)=O)C(O)C(Oc2ccc3c(O)c(NC(=O)c4ccc(O)c(CC=C(C)C)c4)c(=O)oc3c2C)OC1(C)C | % | 37.8 |
| COc1cccc(OCCCN)c1-c1cc(Nc2cnc(C#N)cn2)n[nH]1 + Nc1ccc(C#CCN(C(=O)Cc2ncc(C(F)(F)F)cc2C(F)(F)F)c2ccc(F)cc2)nn1 | % | 5.11 |
| COc1cc2cc(C(=O)CCC(=O)O)sc2cc1OC + COC1C(OC(N)=O)C(O)C(Oc2ccc3c(O)c(NC(=O)c4ccc(O)c(CC=C(C)C)c4)c(=O)oc3c2C)OC1(C)C | % | 127 |
| C=CC(=O)N1CCN(c2nc(=O)n(-c3c(C)ccnc3C(C)C)c3nc(-c4c(O)cccc4F)c(F)cc23)C(C)C1 (stereo not given) + Nc1ccc(C#CCN(C(=O)Cc2ncc(C(F)(F)F)cc2C(F)(F)F)c2ccc(F)cc2)nn1 | % | 109 |
| COc1cccc(OCCCN)c1-c1cc(Nc2cnc(C#N)cn2)n[nH]1 + COC1C(OC(N)=O)C(O)C(Oc2ccc3c(O)c(NC(=O)c4ccc(O)c(CC=C(C)C)c4)c(=O)oc3c2C)OC1(C)C | % | 5.97 |
| COc1cc(C2c3cc4c(cc3C(OC3OC5COC(C)OC5C(O)C3O)C3COC(=O)C23)OCO4)cc(OC)c1O (stereo not given) + COC1C(OC(N)=O)C(O)C(Oc2ccc3c(O)c(NC(=O)c4ccc(O)c(CC=C(C)C)c4)c(=O)oc3c2C)OC1(C)C | % | 95.6 |
| C=CC(=O)N1CCN(c2nc(=O)n(-c3c(C)ccnc3C(C)C)c3nc(-c4c(O)cccc4F)c(F)cc23)C(C)C1 (stereo not given) + Cc1cccc(N(C)C(=O)C2C(O)CCN2c2nc(C)cc(C(F)(F)F)c2C#N)c1 | % | 115 |
| CC1COCCN1c1cc(C2(S(C)(=N)=O)CC2)nc(-c2ccnc3[nH]ccc23)n1 (stereo not given) + Nc1ccc(C#CCN(C(=O)Cc2ncc(C(F)(F)F)cc2C(F)(F)F)c2ccc(F)cc2)nn1 | % | 109 |
| CC1COCCN1c1cc(C2(S(C)(=N)=O)CC2)nc(-c2ccnc3[nH]ccc23)n1 (stereo not given) + COC1C(OC(N)=O)C(O)C(Oc2ccc3c(O)c(NC(=O)c4ccc(O)c(CC=C(C)C)c4)c(=O)oc3c2C)OC1(C)C | % | 109 |
| COc1cc2cc(C(=O)CCC(=O)O)sc2cc1OC + Nc1ccc(C#CCN(C(=O)Cc2ncc(C(F)(F)F)cc2C(F)(F)F)c2ccc(F)cc2)nn1 | % | 106 |
